target: pooled human IgG (human IgG1,2,3 and 4)
endpoint_label: Enzyme Activity Endpoint Assay: scIgG (ng/µL)
Please give a number only; it is taken to be in ng/µL.

Problem: Determine from records and report Enzyme Activity Endpoint Assay: scIgG for PRT-476 (protein) MVTSVWTKGVTPPTNFTYGEDVLHAPYVANQGWYDITKAFDGGDDLLCGAATAGNMLHWWFDQNKEQIENYLKKHPEKQKINFNGEQMFDVKEAIDTKDSQTNSELFNYFKEKAFPYLSTKHLGVFPDHVIDMFINGYRLSLTNHGPTPVKRGSKDPRGGIFDAVFTRGDQSKLLTNRHDLKNKTLKEISDLIKQELTEGKALGISHTYANVRINHVINLWGADFDAEGNLEAIYVTDSDSNASIGMKKYFVGVNSNGKVAISAKEIEEDNIGAQVLGLFTLSTGQDIWNQTNLEHHHHHH
Solution: 0

Problem: Quote Enzyme Activity Endpoint Assay: scIgG reported for PRT-168 (protein) MANQEIRYSEVTPYHVTSVWTKGVTPPEDFTQGEDVFHAPYKANQGWYDITKTFNGKDDLLCGAATAGNMLHWWFDQNKDQIKRYLEEHPEKQKINFNGEQMFDVKEAIDTKNSQLDSKLFEYFKEKAFPYLSTKHLGVFPDHVIDMFINGYRLSLTNHGPTPVKEGSKDPRGGIFDAVFTRGDQSKLLTSRHDFKEKNLKEISDLIKKELTEGKALGLSHTYANVRINHVINLWGADFDSNGNLKAIYVTDSDSNASIGMKKYFVGVNSAGKVAISAKEIKEDNIGAQVLGLFTLSTGQDSWNQTN please.
Solution: 0

Problem: Query Enzyme Activity Endpoint Assay: scIgG for PRT-87 (protein) MANQEIRYSEVTPYHITSVWTKGVTPPEQFTQGEDVFHAPYIANQGWYDITKTFNGKDNLLCGAATAGNMLHWWFDQNKEEIERYLKKYPEKQKIMFGDQELLDVRKVINTKDSQTNSKLFEYFRDKAFPNLSARRLGVMPDLVLDMFINGYYLSVTKTQTTDVNRTYGNKDNRGGIFDAVFTRGDQSKLLTNRHDFKEKNLKEISQLIKQELQEGKALALSHTYANVRINHVINLWGADFDSEGNLKAIYVTDSDSNASIGMKKYFVGVNSSGKVAISAKEIEEDNIGAQVLGLFTLSTGQDIWEQTN
Solution: 50

Problem: Give Enzyme Activity Endpoint Assay: scIgG for PRT-93 (protein) MANQEIRYSEVTPYHVTSVWTKGVTPPAKFTQGEDVFHAPYVANQGWYDITKTFNGKDDLLCGAATAGNMLHWWFDQNKEKIEAYLKKHPDKQKIMFGDQELLDVRKVINTKDDQTNSELFNYFRDKAFPGLSARRIGVMPDLVLDMFINGYYLNVYKTQTTDVNRTYQEKDRRGGIFDAVFTRGDQSKLLTSRHDFKEKNLKEISDLIKKELTEGKALGLSHTYANVRINHVINLWGADFDSNGNLKAIYVTDSDSNASIGMKKYFVGVNSAGKVAISAKEIKEDNIGAQVLGLFTLSTGQDSWNQTN
Solution: 0

Problem: Specify measured Enzyme Activity Endpoint Assay: scIgG for PRT-96 (protein) MANQEIRYSEVTPYTVTSVWTKGVTPPADFTQGEDVFHAPYVANQGWYDITKTFNGKDDLLCGAATAGNMLHWWFDQNKEKIEAYLKKHPDKQKIMFGDQELLDVRKAINTKGDQTNSELFNYFRDKAFPGLSARRIGVMPDLVLDMFINGYYLNVYKTQTTDVNRTYQEKDRRGGIFDAVFTRGDQSKLLTSRHDFKEKNLKEISDLIKKELTEGKALGLSHTYANVRINHVINLWGADFDSEGNLKAIYVTDSDSNASIGMKKYFVGVNSAGKVAISAKEIKEDNIGAQVLGLFTLSTGQDSWNQTN .
Solution: 0

Problem: Return the recorded Enzyme Activity Endpoint Assay: scIgG value; entry: PRT-184 (protein) MANQEIRYSEVTPYHVTSVWTKGVTPPANFTQGEDVFHAPYVANQGWYDITKTFNGKDDLLCGAATAGNMLHWWFDQNKDQIKRYLEEHPEKQKINFNGEQMFDVKEAIDTKNHQLDSKLFEYFKEKAFPYLSTKHLGVFPDHVIDMFINGYRLSLTNHGPTPVKEGSKDPRGGIFDAVFTRGDQSKLLTSRHDFKEKNLKEISDLIKKELTEGKALGLSHTYANVRINHVINLWGADFDSNGNLKAIYVTDSDSNASIGMKKYFVGVNSAGKVAISAKEIKEDNIGAQVLGLFTLSTGQDSWQKLS
Solution: 0

Problem: Answer with the recorded Enzyme Activity Endpoint Assay: scIgG of PRT-284 (protein) MVTSVWTKGVTPPAKFTQGEDVFHAPYVANQGWYDITKTFNGKDDLLCGAATAGNMLHWWFDQNKEKIEAYLKKHPDKQKIMFGDQELLDVRKVINTKGDQTNSELFNYFRDKAFPNLSARRIGVMPDLVLDMFINGYYLNVYKTQTTDVNRTYQEKDRRGGIFDAVFTRGDQSKLLTSRHDFKEKNLKEISDLIKKELTEGKALGLSHTYANVRLNHVINLWGADFDSNGNLKAIYVTDSDSNASIGMKKYGVGVNSAGKVAISAKEIKEDNIGAQVLGLFTLSTGQDSWNQTN only.
Solution: 483

Problem: Assign Enzyme Activity Endpoint Assay: scIgG to the following record: PRT-101 (protein) MANQEIRYSEVTPYHVTSVWTKGVTPPAKFTQGEDVFHAPYVANQGWYDITKTFNGKDDLLCGAATAGNMLHWWFDQNKEKIEAYLKKHPDKQKIMFGDQELLDVRKVINTKGDQTNSELFNYFRDKAFPGLSARRIGVMPDLVLDMFINGYYLNVYKTQTTDVNRTYQEKDKRGGIFDAVFTRGDQSKLLTSRHDFKEKNLKEISDLIKKELTEGKALGLSHTYANVRINHVINLWGADFDSNGNLKAIYVTDSDSNASIGMKKYFVGVNSAGKVAISAKEIKEDNIGAQVLGLFTLSTGQDSWNQTN
Solution: 0
